Each item that follows carries a reported Foliar treatment phytotoxicity, Wheat.
# Tested on: wheat
# testProtocol: Phytotoxicity test for upland field crops (foliar treatment test)
# Assay type: in vivo
# Design: key: 0 (no harm); 9 (complete withered)
# measurementContext: 50 g ai/ha, Wheat (14 days after treatment)
testReadout: Foliar treatment phytotoxicity, Wheat

{"compound": "CON(Cc1nnn(C)n1)Cc1nc(C(F)(F)F)ccc1C(=O)Nc1nnnn1C", "testReadout": "Foliar treatment phytotoxicity, Wheat", "val": 0}
{"compound": "Cn1ncnc1COc1nc(C(F)(F)F)ccc1C(=O)Nc1nnnn1C", "testReadout": "Foliar treatment phytotoxicity, Wheat", "val": 0}
{"compound": "Cn1nnnc1COc1nc(C(F)(F)F)ccc1C(=O)Nc1nnnn1C", "testReadout": "Foliar treatment phytotoxicity, Wheat", "val": 1}
{"compound": "Cn1nnc(COCc2nc(C(F)(F)F)ccc2C(=O)N(C(=O)c2ccccc2)c2nnnn2C)n1", "testReadout": "Foliar treatment phytotoxicity, Wheat", "val": 0}
{"compound": "Cn1nnnc1NC(=O)c1ccc(C(F)(F)F)nc1COCc1nc(S(C)(=O)=O)n(C)n1", "testReadout": "Foliar treatment phytotoxicity, Wheat", "val": 2}
{"compound": "C=C(C)c1nc(COCc2nc(C(F)(F)F)ccc2C(=O)Nc2nnnn2C)nn1C", "testReadout": "Foliar treatment phytotoxicity, Wheat", "val": 0}
{"compound": "Cn1nnnc1NC(=O)c1ccc(C(F)(F)F)nc1OCc1nnnn1C(F)F", "testReadout": "Foliar treatment phytotoxicity, Wheat", "val": 0}
{"compound": "C=CCn1nnnc1NC(=O)c1ccc(C(F)(F)F)nc1COCc1nc(C(F)(F)F)n(C)n1", "testReadout": "Foliar treatment phytotoxicity, Wheat", "val": 0}
{"compound": "Cn1nnc(COCc2nc(C(F)(F)F)ccc2C(=O)Nc2nnnn2C)n1", "testReadout": "Foliar treatment phytotoxicity, Wheat", "val": 0}
{"compound": "COCn1nnc(COCc2nc(C(F)(F)F)ccc2C(=O)Nc2nnnn2C)n1", "testReadout": "Foliar treatment phytotoxicity, Wheat", "val": 0}
{"compound": "COC(=O)OC(C)N(C(=O)c1ccc(C(F)(F)F)nc1CSCc1nnn(C)n1)c1nnnn1C (centres unmarked)", "testReadout": "Foliar treatment phytotoxicity, Wheat", "val": 0}
{"compound": "Cn1nnnc1COCc1nc(C(F)(F)F)ccc1C(=O)Nc1nnnn1C", "testReadout": "Foliar treatment phytotoxicity, Wheat", "val": 3}
{"compound": "Cn1nnnc1NC(=O)c1ccc(C(F)(F)F)nc1COCc1nc(C(F)(F)F)n(C)n1", "testReadout": "Foliar treatment phytotoxicity, Wheat", "val": 0}
{"compound": "Cc1nc(COCc2nc(C(F)(F)F)ccc2C(=O)Nc2nnnn2C)nn1C", "testReadout": "Foliar treatment phytotoxicity, Wheat", "val": 0}
{"compound": "C=CCn1nnnc1NC(=O)c1ccc(C(F)(F)F)nc1COCc1nc(C(F)F)n(C)n1", "testReadout": "Foliar treatment phytotoxicity, Wheat", "val": 0}
{"compound": "Cn1nc(COCc2nc(C(F)(F)F)ccc2C(=O)Nc2nnnn2C)nc1C#N", "testReadout": "Foliar treatment phytotoxicity, Wheat", "val": 0}
{"compound": "Cn1nnc(COCc2nc(C(F)(F)F)ccc2C(=O)N(c2nnnn2C)S(C)(=O)=O)n1", "testReadout": "Foliar treatment phytotoxicity, Wheat", "val": 0}
{"compound": "Cn1nnc(CS(=O)(=O)Cc2nc(C(F)(F)F)ccc2C(=O)Nc2nnnn2C)n1", "testReadout": "Foliar treatment phytotoxicity, Wheat", "val": 4}
{"compound": "Cn1nnnc1CSc1nc(C(F)(F)F)ccc1C(=S)Nc1nnnn1C", "testReadout": "Foliar treatment phytotoxicity, Wheat", "val": 0}
{"compound": "Cc1nc(COCc2nc(C(F)(F)F)ccc2C(=S)Nc2nnnn2C)nn1C", "testReadout": "Foliar treatment phytotoxicity, Wheat", "val": 0}
